- Organism: Rattus norvegicus
- Method: Open TG-GATES - Regimen: Single
- Assay type: toxicity, organism-based, Sprague-Dawley
- Set-up: regimen Single, gender Male, age 6 weeks
- Condition notes: in vivo, po, 0 mg/kg, 24 h, tissue Blood, route gavage, dose level Control
Measured property: MCV (fL)
Report only the number, with the unit fL understood.

>>> readout_number("CN(C)CCN(Cc1cccs1)c1ccccn1")
64.3
>>> readout_number("COc1ccc2[nH]c([S+]([O-])Cc3ncc(C)c(OC)c3C)nc2c1 (stereo unspecified)")
63.6

// sample CCOc1ccc(NC(=O)CC(C)O)cc1 (stereo unspecified) , its MCV was 64.4

// sample COc1cc2c(c(OC)c1OC)-c1ccc(OC)c(=O)cc1[C@@H](NC(C)=O)CC2 , its MCV was 65.5

###

- Organism: Rattus norvegicus
- Method: Open TG-GATES - Regimen: Single
- Format: toxicity, organism-based, Sprague-Dawley
- Design: regimen Single, gender Male, age 6 weeks
- Condition notes: in vivo, po, 100 mg/kg, 9 h, tissue Blood, route gavage, dose level High
Measured property: Ret (%)
Report only the number, with the unit % understood.

These solved cases illustrate the format of a correct answer.
>>> readout_number("CN(C)CCCN1c2ccccc2CCc2ccc(Cl)cc21")
8.1
>>> readout_number("CN(C)CCCN1c2ccccc2CCc2ccccc21")
8.8
>>> readout_number("CC1=C(/C=C/C(C)=C/C=C/C(C)=C/CO)C(C)(C)CCC1")
7.6

Now look at this entry.
// sample CN(C)CCN(Cc1cccs1)c1ccccn1 , its Ret was 7.6

###

- Organism: Rattus norvegicus
- Method: Open TG-GATES - Regimen: Daily Repeat
- Type: toxicity, organism-based, Sprague-Dawley
- Parameters: regimen Daily Repeat, gender Male, age 6 weeks
- Condition notes: in vivo, po, 10 mg/kg, […], tissue Blood, route gavage, dose level Low, time 7 day
Measured property: Bas (%)
Report only the number, with the unit % understood.

These solved cases illustrate the format of a correct answer.
>>> readout_number("CN(C)CCCN1c2ccccc2CCc2ccccc21 [IMIPRAMINE]")
0
>>> readout_number("CC(C)OC(=O)C(C)(C)Oc1ccc(C(=O)c2ccc(Cl)cc2)cc1 [FENOFIBRATE]")
0.2
>>> readout_number("CN(C)CCN(Cc1cccs1)c1ccccn1")
0

// sample CC1=C(/C=C/C(C)=C/C=C/C(C)=C/CO)C(C)(C)CCC1 [RETINOL] , its Bas was 0

###

// TP lookup, one value per entry
- Organism: Rattus norvegicus
- Method: Open TG-GATES - Regimen: Daily Repeat
- Type: toxicity, organism-based, Sprague-Dawley
- Design: regimen Daily Repeat, gender Male, age 6 weeks
- Condition notes: in vivo, po, 1000 mg/kg, 72 h, tissue Plasma, route gavage, dose level High, time 3 day
Report only the number, with the unit g/dL understood.

>>> readout_number("NC(N)=Nc1nc(CSCCC(N)=NS(N)(=O)=O)cs1")
5.5

// sample COC1=CC(=O)C[C@@H](C)[C@]12Oc1c(Cl)c(OC)cc(OC)c1C2=O , its TP was 5.6

// sample COc1ccc2[nH]c([S+]([O-])Cc3ncc(C)c(OC)c3C)nc2c1 (stereo unspecified) , its TP was 5.6

// sample CC(C)OC(=O)C(C)(C)Oc1ccc(C(=O)c2ccc(Cl)cc2)cc1 [FENOFIBRATE] , its TP was 5.4

// sample CCOc1ccc(NC(=O)CC(C)O)cc1 (stereo unspecified) , its TP was 5.6

// sample CCOC(=O)CCC(=O)O[C@H]1[C@H](O[C@@H]2[C@@H](C)[C@H](O[C@H]3C[C@@](C)(OC)[C@@H](O)[C@H](C)O3)[C@@H](C)C(=O)O[C@H](CC)[C@@](C)(O)[C@H](O)[C@@H](C)C(=O)[C@H](C)C[C@@]2(C)O)O[C@H](C)C[C@@H]1N(C)C [ERYTHROMYCIN ETHYLSUCCINATE] , its TP was 5.7

###

// APTT lookup, one value per entry
- Organism: Rattus norvegicus
- Method: Open TG-GATES - Regimen: Single
- Assay type: toxicity, organism-based, Sprague-Dawley
- Design: regimen Single, gender Male, age 6 weeks
- Condition notes: in vivo, po, 30 mg/kg, 3 h, tissue Blood, route gavage, dose level Middle
Report only the number, with the unit s understood.

These solved cases illustrate the format of a correct answer.
>>> readout_number("CN(C)CCN(Cc1cccs1)c1ccccn1")
21.9
>>> readout_number("CC1=C(/C=C/C(C)=C/C=C/C(C)=C/CO)C(C)(C)CCC1")
21.5
>>> readout_number("CN(C)CCCN1c2ccccc2CCc2ccc(Cl)cc21")
16.4

Now look at this entry.
// sample CN(C)CCCN1c2ccccc2CCc2ccccc21 , its APTT was 16.3

###

// LDH lookup, one value per entry
- Organism: Rattus norvegicus
- Method: Open TG-GATES - Regimen: Single
- Format: toxicity, organism-based, Sprague-Dawley
- Set-up: regimen Single, gender Male, age 6 weeks
- Condition notes: in vivo, po, 30 mg/kg, 9 h, tissue Plasma, route gavage, dose level Middle
Report only the number, with the unit IU/L understood.

>>> readout_number("CN(C)CCN(Cc1cccs1)c1ccccn1")
205.6

// sample CC1=C(/C=C/C(C)=C/C=C/C(C)=C/CO)C(C)(C)CCC1 [RETINOL] , its LDH was 253.4

// sample CN(C)CCCN1c2ccccc2CCc2ccccc21 [IMIPRAMINE] , its LDH was 64.6

// sample CN(C)CCCN1c2ccccc2CCc2ccc(Cl)cc21 [CLOMIPRAMINE] , its LDH was 86.4

###

// CRE lookup, one value per entry
- Species on record: Rattus norvegicus
- Method: Open TG-GATES - Regimen: Daily Repeat
- Format: toxicity, organism-based, Sprague-Dawley
- Set-up: regimen Daily Repeat, gender Male, age 6 weeks
- Condition notes: in vivo, po, 0 mg/kg, […], tissue Plasma, route gavage, dose level Control, time 7 day
Report only the number, with the unit mg/dL understood.

// sample CN(C)CCN(Cc1cccs1)c1ccccn1 , its CRE was 0.2

// sample COC1=CC(=O)C[C@@H](C)[C@]12Oc1c(Cl)c(OC)cc(OC)c1C2=O , its CRE was 0.4

// sample CC1=C(/C=C/C(C)=C/C=C/C(C)=C/CO)C(C)(C)CCC1 , its CRE was 0.2

// sample COc1ccc2[nH]c([S+]([O-])Cc3ncc(C)c(OC)c3C)nc2c1 (stereo not given) , its CRE was 0.4

// sample CC(C)OC(=O)C(C)(C)Oc1ccc(C(=O)c2ccc(Cl)cc2)cc1 [FENOFIBRATE] , its CRE was 0.2

// sample O=C(CCCN1CCC(O)(c2ccc(Cl)cc2)CC1)c1ccc(F)cc1 , its CRE was 0.5

// sample CN1C(=O)CN=C(c2ccccc2)c2cc(Cl)ccc21 , its CRE was 0.5

###

- Species on record: Rattus norvegicus
- Method: Open TG-GATES - Regimen: Single
- Assay type: toxicity, organism-based, Sprague-Dawley
- Set-up: regimen Single, gender Male, age 6 weeks
- Condition notes: in vivo, po, 300 mg/kg, 9 h, tissue Blood, route gavage, dose level Middle
Measured property: Hb
Put your answer as a value accompanied by its unit after it.

>>> result("CCOC(=O)CCC(=O)O[C@H]1[C@H](O[C@@H]2[C@@H](C)[C@H](O[C@H]3C[C@@](C)(OC)[C@@H](O)[C@H](C)O3)[C@@H](C)C(=O)O[C@H](CC)[C@@](C)(O)[C@H](O)[C@@H](C)C(=O)[C@H](C)C[C@@]2(C)O)O[C@H](C)C[C@@H]1N(C)C [ERYTHROMYCIN ETHYLSUCCINATE]")
"13.4 g/dL"
>>> result("COC1=CC(=O)C[C@@H](C)[C@]12Oc1c(Cl)c(OC)cc(OC)c1C2=O")
"12.9 g/dL"
>>> result("NC(N)=Nc1nc(CSCCC(N)=NS(N)(=O)=O)cs1")
"13.4 g/dL"

Now look at this entry.
// sample COc1ccc2[nH]c([S+]([O-])Cc3ncc(C)c(OC)c3C)nc2c1 (centres undefined) , its Hb was 12.7 g/dL

###

- Species: Rattus norvegicus
- Method: Open TG-GATES - Regimen: Single
- Type: toxicity, organism-based, Sprague-Dawley
- Parameters: regimen Single, gender Male, age 6 weeks
- Condition notes: in vivo, po, 10 mg/kg, 9 h, tissue Blood, route gavage, dose level Low
// WBC lookup, one value per entry
Report only the number, with the unit x10_2/uL understood.

These solved cases illustrate the format of a correct answer.
>>> readout_number("CC1=C(/C=C/C(C)=C/C=C/C(C)=C/CO)C(C)(C)CCC1 [RETINOL]")
92.3
>>> readout_number("CN(C)CCCN1c2ccccc2CCc2ccccc21 [IMIPRAMINE]")
71.4
>>> readout_number("CN(C)CCCN1c2ccccc2CCc2ccc(Cl)cc21 [CLOMIPRAMINE]")
80

// sample CN(C)CCN(Cc1cccs1)c1ccccn1 , its WBC was 62
